System: Streptococcus pneumoniae
experiment summary: Antimicrobial activity against drug-resistant Streptococcus pneumoniae isolate 3243 by NCCLS M7-A7 method
Type: functional
observation type: MIC (µg/mL)
Kindly provide the numeric value in µg/mL only, without the unit symbol.

1. CC[C@H]1OC(=O)[C@H](C)[C@@H](O[C@H]2C[C@@](C)(OC)[C@@H](O)[C@H](C)O2)[C@H](C)[C@@H](O[C@@H]2O[C@H](C)C[C@H](N(C)C)[C@H]2O)[C@](C)(O)C[C@@H](C)CN(C)[C@H](C)[C@@H](O)[C@]1(C)O ... 0.03
2. CCC[C@@H]1C[C@@H](C(=O)N[C@@H]([C@H]2O[C@H](SC)[C@H](O)[C@@H](O)[C@H]2O)[C@H](C)Cl)N(C)C1 ... 0.016
3. CC[C@H]1OC(=O)[C@H](C)[C@@H](O[C@H]2C[C@@](C)(OC)[C@@H](O)[C@H](C)O2)[C@H](C)[C@@H](O[C@@H]2O[C@H](C)C[C@H](N(C)C)[C@H]2O)[C@](C)(OC)C[C@@H](C)C(=O)[C@H](C)[C@@H](O)[C@]1(C)O ... 0.016
4. CO/N=C(\C(=O)N[C@@H]1C(=O)N2C(C(=O)O)=C(CSc3nc(=O)c(O)nn3C)CS[C@H]12)c1csc(N)n1 ... 0.125

Query "CN(C)c1cc(NC(=O)CNC(C)(C)C)c(O)c2c1C[C@H]1C[C@H]3[C@H](N(C)C)C(O)=C(C(N)=O)C(=O)[C@@]3(O)C(O)=C1C2=O" on Streptococcus pneumoniae; MIC returned: 0.03

====

System: Streptococcus pneumoniae
experiment summary: Antimicrobial activity against drug-resistant Streptococcus pneumoniae isolate 1635 after 49 passages with clarithromycin measured after 10 antibiotic-free subculture by multi-step resistance selection technique
Format: functional
observation type: MIC (µg/mL)
Answer in µg/mL, number only, no unit symbol.

// worked examples, MIC included
1) C[C@@H](O)[C@H]1C(=O)N2C(C(=O)O)=C(SCCNC=N)C[C@H]12 [IMIPENEM ANHYDROUS] ... 0.002
2) CCC[C@@H]1C[C@@H](C(=O)N[C@@H]([C@H]2O[C@H](SC)[C@H](O)[C@@H](O)[C@H]2O)[C@H](C)Cl)N(C)C1 ... 0.25
3) CC[C@H]1OC(=O)[C@H](C)C(=O)[C@H](C)[C@@H](O[C@@H]2O[C@H](C)C[C@H](N(C)C)[C@H]2O)[C@](C)(OC)C[C@@H](C)C(=O)[C@H](C)[C@H]2N(CCCCn3cnc(-c4cccnc4)c3)C(=O)O[C@]12C ... 0.016

Entry "CN(C)c1cc(NC(=O)CNC(C)(C)C)c(O)c2c1C[C@H]1C[C@H]3[C@H](N(C)C)C(O)=C(C(N)=O)C(=O)[C@@]3(O)C(O)=C1C2=O" , MIC reported as 0.016

====

Tested on: Streptococcus pneumoniae
experiment summary: Antimicrobial activity against drug-resistant Streptococcus pneumoniae isolate 3676 after 44 passages with clarithromycin measured after 10 antibiotic-free subculture by multi-step resistance selection technique
Type: functional
observation type: MIC (µg/mL)
Report the figure in µg/mL without appending any unit label.

Before answering, review these 4 worked examples.
1) CC[C@H]1OC(=O)[C@H](C)[C@@H](O[C@H]2C[C@@](C)(OC)[C@@H](O)[C@H](C)O2)[C@H](C)[C@@H](O[C@@H]2O[C@H](C)C[C@H](N(C)C)[C@H]2O)[C@](C)(OC)C[C@@H](C)C(=O)[C@H](C)[C@@H](O)[C@]1(C)O ... 16
2) CCC[C@@H]1C[C@@H](C(=O)N[C@@H]([C@H]2O[C@H](SC)[C@H](O)[C@@H](O)[C@H]2O)[C@H](C)Cl)N(C)C1 ... 0.06
3) CC[C@H]1OC(=O)[C@H](C)C(=O)[C@H](C)[C@@H](O[C@@H]2O[C@H](C)C[C@H](N(C)C)[C@H]2O)[C@](C)(OC)C[C@@H](C)C(=O)[C@H](C)[C@H]2N(CCCCn3cnc(-c4cccnc4)c3)C(=O)O[C@]12C ... 0.03
4) CO/N=C1\CN(c2nc3c(cc2F)c(=O)c(C(=O)O)cn3C2CC2)CC1CN (stereo not given) ... 0.03

We next turn to a different molecule, shown below.
For this molecule ( "CO/N=C(\C(=O)N[C@@H]1C(=O)N2C(C(=O)O)=C(CSc3nc(=O)c(O)nn3C)CS[C@H]12)c1csc(N)n1" ), measured MIC is 0.03
